test: Intrinsic clearance in rat liver microsomes; settings: read-out: CLH
The compounds listed here are annotated with their predicted hepatic clearance.
Answer in mL/min/kg, number only, no unit symbol.

INSERT INTO assay_data (smiles_structure, recorded_number) VALUES
  ('Cc1cc(C)c2c(n1)sc1c(NCc3ccc(S(C)(=O)=O)cc3)ncnc12', 50),
  ('Cc1cc(C)c2c(n1)sc1c(NCc3ccc(C(C)(C)O)cc3)nccc12', 58),
  ('Cc1cc(C)c2c(n1)sc1c(C3CCN(C(=O)C4(C)CC4)CC3)ncnc12', 59),
  ('Cc1cc(C)c2c(n1)sc1c(N3CCCC3)ncnc12', 68),
  ('Cc1cc(C)c2c(n1)sc1c(NC3CCC3)nccc12', 69),
  ('Cc1cc(C)c2c(n1)sc1c(N3CCCC3)nccc12', 68),
  ('Cc1cc(C)c2c(n1)sc1c(N3CC4(COC4)C3)ncnc12', 63);

Continue with the compound presented below.
# input Which predicted hepatic clearance reading was recorded for the compound Cc1cc(C)c2c(n1)sc1c(N3CCC3)ncnc12 ?
# output 64

###

biological target: Muscarinic acetylcholine receptor M4 (Homo sapiens, UniProt P08173); test: Positive allosteric modulation of human muscarinic acetylcholine M4/Gqi5 receptor expressed in CHO cells in presence of acetylcholine at EC20 concentration by calcium mobilization assay; assay type: functional, cell-based; settings: read-out: EC50
Quantity name: pEC50
To interpret pEC50, take it as minus log10 of a concentration measured in moles per litre.

INSERT INTO measurements (molecule, quantity_name, recorded_number) VALUES
  ('Cc1cc(C)c2c(n1)sc1c(NCc3ccc4c(n3)CCC4)ncnc12', 'pEC50', 5.59),
  ('Cc1cc(C)c2c(n1)sc1c(NCc3ccc(CN4CCOCC4)cc3)ncnc12', 'pEC50', 5.95),
  ('Cc1cc(C)c2c(n1)sc1c(C3CCN(C(=O)C4(C)CC4)CC3)ncnc12', 'pEC50', 6.63),
  ('Cc1cc(C)c2c(n1)sc1c(NCc3ccc(C(C)(C)O)cc3F)ncnc12', 'pEC50', 5.63),
  ('Cc1cc(C)c2c(n1)sc1c(NCc3ccc(OC(F)F)cc3)ncnc12', 'pEC50', 5.40);

# input Query: pEC50; subject: Cc1cc(C)c2c(n1)sc1c(C3CCOCC3)ncnc12
# output 6.82

# input // repeat for Cc1cc(C)c2c(n1)sc1c(OCc3ccc(C(C)(C)O)cc3)ncnc12 and report
# output 5.06

###

The entries below come with measured predicted hepatic clearance values attached.
experiment: Intrinsic clearance in human liver microsomes; settings: read-out: CLH
Enter your answer as a number in mL/min/kg; do not include the unit.

Below, each entry is followed by its recorded predicted hepatic clearance result.
INSERT INTO assay_data (smiles_structure, recorded_number) VALUES
  ('Cc1cc(C)c2c(n1)sc1c(NCc3ccc(S(C)(=O)=O)cc3)ncnc12', 12),
  ('Cc1cc(C)c2c(n1)sc1c(C3CCN(C(=O)C4(C)CC4)CC3)ncnc12', 11),
  ('Cc1cc(C)c2c(n1)sc1c(NCc3ccc(C(C)(C)O)cc3)nccc12', 15),
  ('Cc1cc(C)c2c(n1)sc1c(N3CCCC3)nccc12', 19),
  ('Cc1cc(C)c2c(n1)sc1c(N3CC4(COC4)C3)ncnc12', 18),
  ('Cc1cc(C)c2c(n1)sc1c(NC3CCC3)nccc12', 20),
  ('Cc1cc(C)c2c(n1)sc1c(N3CCC3)ncnc12', 20);

# input Report predicted hepatic clearance for Cc1cc(C)c2c(n1)sc1c(N3CCCC3)ncnc12 please.
# output 18

###

target: UniProtKB P08173; assay: Positive allosteric modulation of human muscarinic acetylcholine M4/Gqi5 receptor expressed in CHO cells in presence of acetylcholine at EC20 concentration by calcium mobilization assay relative to control; type: functional, cell-based; settings: filed as positive allosteric modulator
# label = true if %max < 70% else false

# input %max strictly < 70% for this molecule? Cc1cc(C)c2c(n1)sc1c(C3CC3)ncnc12
# output true

###

assay: Brain to plasma partition coefficient, Kp of the compound in Sprague-Dawley rat at 0.2 mg/kg, iv measured at […]; assay type: ADME, organism-based; conditions: time 0.25 hrs
Collected Kp values appear next to each entry.
Quick one: just the number, no unit, thanks!

Record excerpt, results attached:
INSERT INTO measurements (smiles_structure, quantity_name, recorded_number) VALUES
  ('Cc1cc(C)c2c(n1)sc1c(C3CCN(C(=O)C4(C)CC4)CC3)ncnc12', 'Kp', 0.54),
  ('Cc1cc(C)c2c(n1)sc1c(NCc3ccc(S(C)(=O)=O)cc3)ncnc12', 'Kp', 0.45),
  ('Cc1cc(C)c2c(n1)sc1c(N3CC4(COC4)C3)ncnc12', 'Kp', 4.47);

# input What value of Kp has been reported for the following molecule? Cc1cc(C)c2c(n1)sc1c(N3CCCC3)nccc12
# output 37.1

# input Cc1cc(C)c2c(n1)sc1c(N3CCCC3)ncnc12 , same question.
# output 5.36

# input Continue with Cc1cc(C)c2c(n1)sc1c(NC3CCC3)nccc12
# output 10.4

# input Next molecule: Cc1cc(C)c2c(n1)sc1c(N3CCC3)ncnc12
# output 6.49

# input Now this one: Cc1cc(C)c2c(n1)sc1c(NCc3ccc(C(C)(C)O)cc3)nccc12
# output 2.27

###

Molecular target: Muscarinic acetylcholine receptor M4 (Homo sapiens) (UniProt P08173)
Sequence (whole entry): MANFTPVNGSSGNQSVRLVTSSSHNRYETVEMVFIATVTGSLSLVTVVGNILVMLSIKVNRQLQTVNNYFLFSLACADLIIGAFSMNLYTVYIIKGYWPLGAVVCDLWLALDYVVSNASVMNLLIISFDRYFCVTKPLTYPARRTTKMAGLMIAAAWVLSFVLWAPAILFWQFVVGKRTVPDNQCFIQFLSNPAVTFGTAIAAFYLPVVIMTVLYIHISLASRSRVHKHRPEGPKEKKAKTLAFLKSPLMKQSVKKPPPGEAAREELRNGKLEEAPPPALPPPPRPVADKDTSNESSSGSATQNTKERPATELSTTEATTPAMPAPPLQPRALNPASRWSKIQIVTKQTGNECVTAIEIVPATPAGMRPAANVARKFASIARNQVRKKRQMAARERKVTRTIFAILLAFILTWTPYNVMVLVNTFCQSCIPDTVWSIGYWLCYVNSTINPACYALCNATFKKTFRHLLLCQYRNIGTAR
Assay: Positive allosteric modulation of human muscarinic acetylcholine M4/Gqi5 receptor expressed in CHO cells in presence of acetylcholine at EC20 concentration by calcium mobilization assay relative to control
Format: functional, cell-based
Conditions: filed as positive allosteric modulator
Tag: YES if measured %max is not below 60%, NO if it is.

INSERT INTO measurements (molecule, cat) VALUES
  ('Cc1cc(C)c2c(n1)sc1c(NC3CCC3)nccc12', 'YES');

# input Does the molecule Cc1cc(C)c2c(n1)sc1c(NC3CN(c4ncc(C(F)(F)F)cn4)C3)ncnc12 have recorded %max that is 60% or more?
# output NO

# input What do you get for Cc1cc(C)c2c(n1)sc1c(C)ncnc12 ?
# output NO

# input Try Cc1cc(C)c2c(n1)sc1c(NC3CC(c4ccncc4)C3)ncnc12 (centres undefined) next.
# output YES

# input How about Cc1cc(C)c2c(n1)sc1c(C3CCCCC3)ncnc12 ?
# output YES

# input Next up: Cc1cc(C)c2c(n1)sc1c(N3CCCC3)nccc12
# output YES

# input What about Cc1cc(C)c2c(n1)sc1c(NCc3ccc4c(c3)COC4)ncnc12 ?
# output NO

# input Continue with COCC1CN(c2ncnc3c2sc2nc(C)cc(C)c23)C1
# output NO

# input What do you get for Cc1cc(C)c2c(n1)sc1c(NCc3ccc(S(C)(=O)=O)cc3)ncnc12 ?
# output NO

# input # iterate: COc1ccc(CNc2nccc3c2sc2nc(C)cc(C)c23)cc1F
# output YES

# input Now give it for Cc1cc(C)c2c(n1)sc1c(NCc3ccc(OC(F)F)cc3)ncnc12 too.
# output NO

# input Repeat for the following molecule: Cc1cc(C)c2c(n1)sc1c(NCc3ccc(C(C)(C)O)cc3F)ncnc12
# output YES

# input Now try Cc1cc(C)c2c(n1)sc1c(NC3CCC3)ncnc12 .
# output YES

###

Catalogue of EC50 values
molecular target: Muscarinic acetylcholine receptor M4 (Homo sapiens); test: Positive allosteric modulation of human muscarinic acetylcholine M4/Gqi5 receptor expressed in CHO cells in presence of acetylcholine at EC20 concentration by calcium mobilization assay; type: functional, cell-based; settings: read-out: EC50

// worked examples, EC50 included
INSERT INTO results (compound, result) VALUES
  ('Cc1cc(C)c2c(n1)sc1c(NCc3ccc(-n4ccnc4)nc3)ncnc12', '1560 nM'),
  ('Cc1cc(C)c2c(n1)sc1c(NCc3ncc(F)cn3)ncnc12', '> 10000 nM'),
  ('Cc1cc(C)c2c(n1)sc1c(NCc3ccc4c(c3)COC4)ncnc12', '1140 nM');

# input Can you share its EC50? I mean this compound: Cc1cc(C)c2c(n1)sc1c(NC3CC(c4ccncc4)C3)ncnc12 (centres undefined)
# output 341 nM

Source listed as ChEMBL document CHEMBL5029174.
